Data credit: patent US8785467B2

# TEST SYSTEM: human PDE10A2 (Homo sapiens (Human), UniProt Q9Y233)
# Sequence (Q9Y233 267-1055): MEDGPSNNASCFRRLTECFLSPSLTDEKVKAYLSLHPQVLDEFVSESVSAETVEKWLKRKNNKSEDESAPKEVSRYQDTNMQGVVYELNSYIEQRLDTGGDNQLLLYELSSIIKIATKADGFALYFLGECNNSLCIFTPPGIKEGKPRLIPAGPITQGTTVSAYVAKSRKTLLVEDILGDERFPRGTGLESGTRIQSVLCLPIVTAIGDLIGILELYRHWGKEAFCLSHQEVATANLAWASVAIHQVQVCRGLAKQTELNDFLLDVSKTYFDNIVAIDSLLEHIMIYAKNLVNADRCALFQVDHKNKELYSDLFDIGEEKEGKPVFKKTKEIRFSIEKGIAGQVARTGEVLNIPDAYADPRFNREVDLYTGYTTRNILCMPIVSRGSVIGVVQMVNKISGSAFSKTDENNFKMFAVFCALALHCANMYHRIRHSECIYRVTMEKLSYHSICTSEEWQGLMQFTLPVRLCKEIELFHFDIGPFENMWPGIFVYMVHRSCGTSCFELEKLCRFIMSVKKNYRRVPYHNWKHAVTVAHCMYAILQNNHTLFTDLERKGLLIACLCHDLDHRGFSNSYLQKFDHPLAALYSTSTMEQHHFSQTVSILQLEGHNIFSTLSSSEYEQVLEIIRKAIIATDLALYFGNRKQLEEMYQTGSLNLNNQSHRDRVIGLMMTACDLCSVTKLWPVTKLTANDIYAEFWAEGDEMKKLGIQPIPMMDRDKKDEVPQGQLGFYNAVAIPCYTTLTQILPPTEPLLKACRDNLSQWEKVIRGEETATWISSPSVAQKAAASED
# TEST SUMMARY: PDE10 fluorescence polarization (IMAP FP) inhibition assay
# EXPERIMENTAL PARAMETERS: human PDE10A2 from transfected AD293 cell lysate, FAM-labeled cAMP 50 nM, room temperature; read-out: PDE10A Ki
MEASURED ENDPOINT: pKi
Notebook: values listed as pKi are -log10 of the concentration (mol/L).

Cc1nc(CNc2nc(OC[C@H]3C[C@@H]3c3ccc4ncccc4n3)nc(Cl)c2C)n(C)n1	8.66
Cc1cc(CNc2nc(OC[C@H]3C[C@@H]3c3ccc4ncccc4n3)nc(Cl)c2C)n(C)n1	11.49
Cn1cc(CNc2cc(C#N)nc(OC[C@H]3C[C@@H]3c3ccccn3)n2)cn1 (stereo in doubt)	7.46
Cc1nc(C)c(CNc2nc(OCCc3ccccn3)nc(C#N)c2C)s1	7.00
CSc1nc(OC[C@H]2C[C@@H]2c2ccccn2)nc(NCc2cnn(C)c2)c1C (stereo in doubt)	9.77

pKi of Cc1nc(C)c(CNc2nc(OCCOc3ccc4cccnc4n3)nc(Cl)c2C)s1 on human PDE10A2 (Homo sapiens (Human), UniProt Q9Y233)?
10.40

What is its pKi for human PDE10A2 (Homo sapiens (Human), UniProt Q9Y233)? Entry: Cc1nc(C)c(CNc2nc(OC[C@H]3C[C@@H]3c3ccccn3)nc(Cl)c2C)s1 (stereo in doubt)
10.72

Recorded pKi for Cc1c(NCc2cnn(C)c2)nc(OC[C@H]2C[C@@H]2c2ccccn2)nc1N(C)C (stereo in doubt) with human PDE10A2 (Homo sapiens (Human), UniProt Q9Y233), please?
7.28

Hello, I am looking for reported pKi with human PDE10A2 (Homo sapiens (Human), UniProt Q9Y233) for COc1ccc([C@H]2C[C@@H]2COc2nc(Cl)c(C)c(NCc3cnn(C)n3)n2)nc1 . Could you help?
9.11

Report pKi for Cc1c(Cl)nc(OC[C@H]2C[C@@H]2c2ccc3ncccc3n2)nc1NCc1nc(C)n(C)n1 tested on human PDE10A2 (Homo sapiens (Human), UniProt Q9Y233).
8.09

Form: Entry = Cc1nc(C)c(CNc2nc(OCCCc3nc4ccccc4[nH]3)nc(Cl)c2C)s1 | System = human PDE10A2 (Homo sapiens (Human), UniProt Q9Y233) | pKi = ____
10.64

What is its pKi for human PDE10A2 (Homo sapiens (Human), UniProt Q9Y233)? Entry: Cc1nc(C)c(CNc2nc(OC[C@H]3C[C@@H]3c3ccc4ncccc4n3)ncc2C)s1
10.24

So what pKi did Cc1nc(C)c(CNc2nc(OC[C@H]3C[C@@H]3c3ccccn3)nc(-c3ncco3)c2C)s1 (stereo in doubt) get with human PDE10A2 (Homo sapiens (Human), UniProt Q9Y233)?
8.19

API: value(readout= pKi, system= human PDE10A2 (Homo sapiens (Human), UniProt Q9Y233), query= Cc1c(Cl)nc(OC[C@@H]2C[C@H]2c2ccccn2)nc1NCc1cnn(C)c1 (stereo in doubt) )
9.36

Which pKi is reported with human PDE10A2 (Homo sapiens (Human), UniProt Q9Y233) for this entry: Cc1c(Cl)nc(OCCCc2ccc3ncccc3n2)nc1NCc1cnn(C)c1 ?
8.68

Missing value: pKi, human PDE10A2 (Homo sapiens (Human), UniProt Q9Y233), entry Cc1nc(C)c(CNc2nc(OCCCc3ccc4ccccc4n3)nc(Cl)c2C)s1 . Fill in?
11.10

Requested read-out pKi, target or system human PDE10A2 (Homo sapiens (Human), UniProt Q9Y233), entry Cc1nc(C)c(CNc2nc(OC[C@H]3C[C@@H]3c3ccc4ncccc4n3)nc(Cl)c2C)o1
9.31
